Below, each entry is listed with its recorded T/C.
- Tested on: BDF1 mice, colon carcinoma 38 sc, T/C %
- Method description: NCI In Vivo Anticancer Drug Screen. Data for tumor model Colon Carcinoma 38 (subcutaneous) in B6D2F1 (BDF1) mice
- Test parameters: endpoint: median tumor weight (est.); dose: 100.0 mg/kg/injection; schedule: Q07DX003 (ip); vehicle: saline; higher = larger tumour
Results filed as inconclusive are left out.

Item under review: CN1c2c(nc(N)[nH]c2=O)NCC1CCNc1ccc(C(=O)NC(CCC(=O)O)C(=O)O)cc1 (centres undefined) . Reported T/C?
64 % of control

# query: T/C of entry `CC[n+]1ccc(Nc2ccc(NC(=O)c3ccc(C(=O)Nc4ccc(Nc5cc[n+](CC)c(N)n5)cc4)cc3)cc2)nc1N`
56 % of control

I have this compound here, `CC(/C=N/N=C(N)N)=N\N=C(N)N` , and I need its recorded T/C.
115 % of control

Need T/C, item `C[C@@H](CN1CC(=O)NC(=O)C1)N1CC(=O)NC(=O)C1`
71 % of control

Data request, read-out T/C, for O=C1C=CN(C2OC(CO)C(O)C2O)C(=O)C1 (centres undefined)
73 % of control

So what does the record say about T/C for `CC[C@](O)(C(=O)O)c1cc2n(c(=O)c1CO)Cc1cc3ccccc3nc1-2` ?
9 % of control

Suppose we examine the compound `Cc1c2ccncc2c(C)c2c1[nH]c1ccccc12` ; what T/C value has been reported?
33 % of control

Entry `c1cc2n(n1)CCN2` : reported T/C = ?
65 % of control

Recorded T/C of `N=C(N)Sc1cc(O)ccc1O` , please.
103 % of control
